Test system: Escherichia coli
method description: Antibacterial activity against Escherichia coli ATCC 25922 after 24 hrs by microtitre broth dilution method
Format: functional
condition info: ATCC 25922, 24 h
I'd be grateful if you could share measured MIC for these entries.
Kindly answer with a numeric value in µg/mL, unit omitted.

Tell me measured MIC for NC[C@H]1O[C@H](O[C@H]2[C@H](O)[C@@H](O[C@H]3O[C@H](CO)[C@@H](O)[C@H](N)[C@H]3O)[C@H](N)C[C@@H]2N)[C@H](N)C[C@@H]1O please.
0.5

Check the records and state MIC for COc1c(N2C[C@@H]3CCCN(CCCCCCCCCCCCO[C@H]4[C@@H](O[C@@H]5[C@@H](O)[C@H](O[C@H]6O[C@H](CN)[C@@H](O)C[C@H]6N)[C@@H](N)C[C@H]5N)O[C@H](CO)[C@@H](O)[C@@H]4N)[C@@H]3C2)c(F)cc2c(=O)c(C(=O)O)cn(C3CC3)c12.Cl.Cl.Cl.Cl.Cl
4
